target: TSLP, Q969D9
procedure-text: Kd (SPR)
For each of the binders below, state its Kd.
Report only the number, with the unit nM understood.

Kd reported for this binder unnamed (protein) chain 1: QMQLVESGGGVVQPGRSLRLSCAASGFTFSTYAMHWVRQAPGKGLEWVAVIWYDGSNKHYADSVKGRFTITRDNSKNTLNLQMNSLRAEDTAVYYCARAPRYYYYYEAFDVWGQGTMVTVSS chain 2: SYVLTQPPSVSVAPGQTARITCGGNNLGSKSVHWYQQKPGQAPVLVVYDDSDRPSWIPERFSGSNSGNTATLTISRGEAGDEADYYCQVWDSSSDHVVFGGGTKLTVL : 152

Form field Kd, entry unnamed (protein) chain 1: QMQLVESGGGVVQPGRSLRLSCAASGFTFSTYAMHWVRQAPGKGLEWVAVIWYDGSNKHYADSVKGRFTITRDNSKNTLNLQMNSLRAEDTAVYYCARAPRYYEYYEAFDVWGQGTMVTVSS chain 2: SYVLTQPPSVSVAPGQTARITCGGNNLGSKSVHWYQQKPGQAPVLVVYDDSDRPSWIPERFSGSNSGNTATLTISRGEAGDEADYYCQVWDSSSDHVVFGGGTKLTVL : 105

// sample unnamed (protein) chain 1: QMQLVESGGGVVQPGRSLRLSCAASGFTFSTFAMHWVRQAPGKGLEWVAVIWYDGSNKHYADSVKGRFTITRDNSKNTLNLQMNSLRAEDTAVYYCARSPRYYEYYEAFDVWGQGTMVTVSS chain 2: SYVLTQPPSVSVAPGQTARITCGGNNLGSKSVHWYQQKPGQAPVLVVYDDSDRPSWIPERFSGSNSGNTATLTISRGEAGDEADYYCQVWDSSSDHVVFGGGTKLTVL , its Kd was 44.5
